Reference source: paper PMC10397247

Biological target: T1, 4H1804-bA
T1 chain: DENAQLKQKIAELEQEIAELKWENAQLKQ
Experiment: two-hybrid library CCNG1;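 further: natural log of median RNA to DNA barcode read ratio; higher means stronger binding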
Listed here are binders together with their documented interaction score.

{"columns": ["BINDER", "interaction score"],
 "data": [
  ["DENAQLEQKIAELKQEIAELKWKNAQLEQ [4H1359-bA]", -0.948],
  ["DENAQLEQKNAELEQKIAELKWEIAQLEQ [4H1449-bA]", -0.732],
  ["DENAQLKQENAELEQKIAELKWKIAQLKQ [4H1710-bA]", -0.669]
]}
